These data points were gathered from patent US20120076782A1.

biological target: T1, human CD38 on cells or tissue (human, UniProt P28907 1-300); assay: FACS Scatchard, IgG1 on RPMI8226 MM cells; mean of at least 2 determinations
T1 construct: The cDNA cloned from Jurkat cells (used for the CHO transfectants) has glutamine at position 49; also called hCD38
outcome.measure: Kd (nM)
Write down the numeric answer in nM and omit the unit.

Check out these entries, answers already filled in.
{"columns": ["binder", "display.unit", "Kd"],
 "data": [
  ["MOR03080 human IgG1 (antibody, V domains shown, also called MAb#3) VH: QVQLVESGGGLVQPGGSLRLSCAASGFTFSSYGMHWVRQAPGKGLEWVSNIYSDGSNTFYADSVKGRFTISRDNSKNTLYLQMNSLRAEDTAVYYCARNMYRWPFHYFFDYWGQGTLVTVSS VL: DIELTQPPSVSVAPGQTARISCSGDNIGNKYVSWYQQKPGQAPVVVIYGDNNRPSGIPERFSGSNSGNTATLTISGTQAEDEADYYCSSYDSSYFVFGGGTKLTVLG", "nM", 0.47],
  ["MOR03079 human IgG1 (antibody, V domains shown, also called MAb#2) VH: QVQLVESGGGLVQPGGSLRLSCAASGFTFSNYGMHWVRQAPGKGLEWVSNIRSDGSWTYYADSVKGRFTISRDNSKNTLYLQMNSLRAEDTAVYYCARRYWSKSHASVTDYWGQGTLVTVSS VL: DIQMTQSPSSLSASVGDRVTITCRASQDISAFLNWYQQKPGKAPKLLIYKVSNLQSGVPSRFSGSGSGTDFTLTISSLQPEDFATYYCQQAYSGSITFGQGTKVEIKR", "nM", 0.6]
]}

Kd in this record for MOR03100 human IgG1 (antibody, V domains shown, also called LAC 3100; MAb#4) VH: QVQLVESGGGLVQPGGSLRLSCAASGFTFSSNGMSWVRQAPGKGLEWVSNISYLSSSTYYADSVKGRFTISRDNSKNTLYLQMNSLRAEDTAVYYCARFYGYFNYADVWGQGTLVTVSS VL: DIELTQPPSVSVAPGQTARISCSGDNIGHYYASWYQQKPGQAPVLVIYRDNDRPSGIPERFSGSNSGNTATLTISGTQAEDEADYYCQSYDYLHDFVFGGGTKLTVLG : 6.31

Kd in this record for MOR03077 human IgG1 (antibody, V domains shown, also called MAb#1) VH: QVQLVQSGAEVKKPGASVKVSCKASGYTFTSYSINWVRQAPGQGLEWMGYIDPNRGNTNYAQKFQGRVTMTRDTSISTAYMELSSLRSEDTAVYYCAREYIYFIHGMLDFWGQGTLVTVSS VL: DIVMTQSPLSLPVTPGEPASISCRSSQSLLFIDGNNYLNWYLQKPGQSPQLLIYLGSNRASGVPDRFSGSGSGTDFTLKISRVEAEDVGVYYCQQYSSKSATFGQGTKVEIKR : 0.89
